Target: Nucleocapsid protein (N) (SARS-CoV-2, UniProt P0DTC9 1-419)
Test: EMSA; no sdAb; Hill fixed at 5
Conditions: protein: recombinant; tags: His6 or His6-MBP N-terminal fusion vector, TEV cleavage; chain copies: 2; label: 5'-FAM; single strand
RECORDED METRIC: Kd (nM)

> print(dat)
                         binder  measure.unit  numeric.readout
1  CACUGAC (ssRNA) [7mer ssRNA]            nM              560
